Assayed Target: T1, huCD33-R69 stably expressed on Jurkat cells (human, UniProt P20138 18-364)
T1 construct: whole, on cells; >200,000 receptors per cell; also called CD33 WT; CD33^ARG69
T1 sequence (P20138 18-364): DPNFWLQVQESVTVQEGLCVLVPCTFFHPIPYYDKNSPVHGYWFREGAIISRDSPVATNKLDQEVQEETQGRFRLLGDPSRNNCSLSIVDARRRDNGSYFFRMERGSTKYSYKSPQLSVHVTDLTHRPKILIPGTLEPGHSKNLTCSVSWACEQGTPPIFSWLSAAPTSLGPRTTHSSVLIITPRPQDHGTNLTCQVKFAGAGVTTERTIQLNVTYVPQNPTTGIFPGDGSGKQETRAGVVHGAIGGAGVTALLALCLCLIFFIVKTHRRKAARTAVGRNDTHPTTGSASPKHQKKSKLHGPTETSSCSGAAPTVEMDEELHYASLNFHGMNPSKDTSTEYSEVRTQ
Protocol Summary: FACS on cells;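 also: fixed Jurkat cells bearing either CD33 variant, barcoded by dye, exposed to myc-tagged scFv periplasmic extracts, detected with anti-myc PE antibody and read by flow cytometry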
Measured geometric mean MFI fold change over Jurkat parental, listed per entry for reference.

Bench note: what geometric mean MFI fold change over Jurkat parental did Polypeptide No. 29 (scFv, V domains shown, scFv) VH: QVQLVQSGAEVKKPGASVKVSCKASGYTFTGYYLHWVRQAPGQGLEWMGVINVRRGSTRYAQNFQGRVTMTRDTSTSTVYMELSSLRSEDTAVYYCARVSGSYYQPWGQGTLVTVSS VL: DIQMTQSPSSLSASVGDRVTITCRASQSISRWLAWYQQKPGKAPKLLIYDASNLETGVPSRFSGSGSGTDFTLTISSLQPEDFATYYCQQGNSFPPIFGGGTKVEIKR show?
< 2 fold

Another binder: Polypeptide No. 20 (scFv, V domains shown, scFv) VH: QVQLVQSGAEVKKPGASVKVSCKASGYMFTGYYIHWVRQAPGQGLEWMGWINPNSGGTNYAQKFQGRVTMTRDTSTSTVYMELSSLRSEDTAVYYCAKDRFGSGNYGYMDVWGKGTTVTVSS VL: DIQMTQSPSSLSASVGDRVTITCRASQSIDRWLAWYQQKPGKAPKLLIYGASSLQSGVPSRFSGSGSGTDFTLTISSLQPEDFATYYCQQSYSTPWTFGQGTRLEIKR
10 to 30 fold

Another binder: Polypeptide No. 32 (scFv, V domains shown, scFv) VH: EVQLLESGGGLVQPGGSLRLSCAASGFTFSSYGMHWVRQAPGKGLEWVSSISGSGDTTYYADSVKGRFTISRDNSKNTLYLQMNSLRAEDTAVYYCARDNPYGDYGGSFDYWGQGTLVTVSS VL: EIVMTQSPATLSVSPGERATLSCRASQSVSSSYLAWYQQKPGQAPRLLIYATSTRATGIPARFSGSGSGTEFTLTISSLQSEDFAVYYCQQYGSLPLTFGQGTKVEIKR
< 2 fold

Another binder: Polypeptide No. 11 (scFv, V domains shown, scFv) VH: QVQLVQSGAEVKKPGASVKVSCKASGDTFTNHYMHWVRQAPGQGLEWMGWINPNSGGTNYAQKFQGRVTMTRDTSTSTVYMELSSLRSEDTAVYYCARDLVPAAVGGYFDYWGQGTLVTVSS VL: DIQMTQSPSSLSASVGDRVTITCRASQSLGSWLAWYQQKPGKAPKLLIYAASSLQSGVPSRFSGSGSGTDFTLTISSLQPEDFATYYCQQANSFPLTFGQGTKVEIKR
2 to 10 fold

Another binder: Polypeptide No. 6 (scFv, V domains shown, scFv) VH: QVQLVQSGAEVKKPGASVKVSCKASGYTFTAYYTHWVRQAPGQGLEWMGWMNPNSGHTSYAQKFQGRVTMTRDTSTSTVYMELSSLRSEDTAVYYCAREAYDSFDYWGQGTLVTVSS VL: DIQMTQSPSSLSASVGDRVTITCRASQSISSYLNWYQQKPGKAPKLLIYEASTLETGVPSRFSGSGSGTDFTLTISSLQPEDFATYYCQQANSFPFTFGPGTKVDIKR
> 30 fold

Another binder: Polypeptide No. 36 (scFv, V domains shown, scFv) VH: QVQLVQSGAEVKKPGASVKVSCKASGGTFSSYAISWVRQAPGQGLEWLGIISPSGRSAGYGRKFQGRVTMTRDTSTSTVYMELSSLRSEDTAVYYCARTDYGGHKWYFDLWGRGTLVTVSS VL: DIQMTQSPSSLSASVGDRVTITCQASQGINNYLNWYQQKPGKAPKLLIYAASTLQRGVPSRFSGSGSGTDFTLTISSLQPEDFATYYCQQSYQTPLTFGGGTKVEIKR
< 2 fold

Another binder: Polypeptide No. 26 (scFv, V domains shown, scFv) VH: QVQLVQSGAEVKKPGASVKVSCKASGYTFTENEMHWVRQAPGQGLEWMGWMNPNSGNTGYAQKFQGRVTMTRDTSTSTVYMELSSLRSEDTAVYYCAREGGDWPYYYMDVWGKGTTVTVSS VL: DIQMTQSPSSLSASVGDRVTITCQASQDIRNYLNWYQQKPGKAPKLLIYAASSLQSGVPSRFSGSGSGTDFTLTISSLQPEDFATYYCQQTSSTPLTFGPGTKVDIKR
< 2 fold

Data origin: patent US20240101668A1
